tested on: naïve T-cells; assay: Priming of naïve human T-cells (dendritic cell-T-cell coculture); format: cell-based; conditions: 3 study donors
# Number of donors with naïve T-cell priming values compiled below

COMPOUND	ENDPOINT_RESULT
CN[C@H](CC(C)C)C(=O)N[C@H]1C(=O)N[C@@H](CC(N)=O)C(=O)N[C@H]2C(=O)N[C@H]3C(=O)N[C@H](C(=O)N[C@H](C(=O)O)c4cc(O)cc(O)c4-c4cc3ccc4O)[C@H](O)c3ccc(c(Cl)c3)Oc3cc2cc(c3O[C@@H]2O[C@H](CO)[C@@H](O)[C@H](O)[C@H]2O[C@H]2C[C@](C)(N)[C@H](O)[C@H](C)O2)Oc2ccc(cc2Cl)[C@H]1O [Vancomycin]	3
NC1=CC(=N\c2ccc(N)cc2)/C(N)=CC/1=N/c1ccc(N)cc1 [Bandrowski's base]	3
Cc1cc(NS(=O)(=O)c2ccc(N=O)cc2)no1 [Nitroso sulfamethoxazole, 4-Nitrososulfamethoxazole]	3

Read the next record carefully.
Prompt line: Lab request: please report Number of donors with naïve T-cell priming under test system naïve T-cells for NC(=O)N1c2ccccc2C=Cc2ccccc21 [Carbamazepine]
Response line: 1
